species on record: Rattus norvegicus; assay: Positive allosteric modulator activity at AMPA receptor in 7 days old Sprague-Dawley rat cerebellar granule neurons assessed as potentiation of kainite-evoked current at 10 uM by whole cell patch clamp technique
Would you mind telling me the reported Activity of each entry?
Numbers only, in %.

Worked examples follow.
- compound: "CC1Nc2ccc(Cl)cc2S(=O)(=O)N1 (centres undefined)"
  Activity / %: 8
- compound: "O=S1(=O)N[C@H]2CCCN2c2c(-c3ccoc3)cc(Cl)cc21"
  Activity / %: 12
- compound: "O=S1(=O)N[C@@H]2CCCN2c2c(-c3ccoc3)cc(Cl)cc21"
  Activity / %: 74

Please examine the following record next.
Activity lookup needed for O=S1(=O)NC2CCCN2c2c(-c3ccoc3)cc(Cl)cc21 (racemic) , thanks.
30

Each recorded value in this set is attributed to ChEMBL document CHEMBL3351233.
